Provenance of the data: paper PMC7824209

System: K562 cell line
procedure summary: MTT cytotoxicity assay
Format: cell-based
experimental setup: Homo sapiens; MTT assay, K562; read-out: IC50 K562

# compound, IC50
measured = [
    ("O=C(c1nc(-c2c[nH]c3cc(Br)ccc23)c[nH]1)c1c[nH]c2cc(O)ccc12", "43.2 µM"),
    ("COC(=O)c1c[nH]c2ccccc12", "> 100 µM"),
    ("CO[C@@]1(C(=O)c2c[nH]c3ccccc23)N=C(c2c[nH]c3cc(Br)ccc23)C(=O)N1", "37.7 µM"),
    ("COc1cccc2c1C(=O)c1c(O)c3c(c(O)c1C2=O)C[C@@](O)(C(=O)CO)C[C@@H]3O[C@H]1C[C@H](N)[C@H](O)[C@H](C)O1 [doxorubicin, reference compound]", "0.92 µM"),
    ("CO[C@@]1(C(=O)c2c[nH]c3cc(O)ccc23)N=C(c2c[nH]c3cc(Br)ccc23)C(=O)N1", "54.2 µM"),
]

====

Test system: Salmonella enterica ATCC14028
procedure summary: Antibacterial activity MIC
Format: cell-based
experimental setup: Gram-negative, ATCC14028, read-out: Antibacterial Activity MIC, Salmonella enterica

# compound, MIC
measured = [
    ("O=C(c1nc(-c2c[nH]c3cc(Br)ccc23)c[nH]1)c1c[nH]c2cc(O)ccc12 [Compound 10, bromotopsentin]", "16 µg/mL"),
    ("CO[C@@]1(C(=O)c2c[nH]c3cc(O)ccc23)N=C(c2c[nH]c3cc(Br)ccc23)C(=O)N1 [Compound 4, spongosoritin D]", "64 µg/mL"),
    ("CO[C@@]1(C(=O)c2c[nH]c3cc(O)ccc23)N=C(c2c[nH]c3ccccc23)C(=O)N1 [Compound 1, spongosoritin A]", "> 128 µg/mL"),
    ("CO[C@@]1(C(=O)c2c[nH]c3ccccc23)N=C(c2c[nH]c3ccccc23)C(=O)N1 [Compound 2, spongosoritin B]", "128 µg/mL"),
    ("COC(=O)c1c[nH]c2cc(O)ccc12 [Compound 14, 6-hydroxy-3-carbomethoxyindole]", "> 128 µg/mL"),
    ("COC(=O)c1c[nH]c2ccccc12 [Compound 13, 3-carbomethoxyindole]", "> 128 µg/mL"),
    ("O=C(NCC(=O)c1c[nH]c2ccccc12)NC(=O)c1c[nH]c2cc(O)ccc12 [Compound 5, spongocarbamide A]", "> 128 µg/mL"),
]

====

System: K562 cell line
procedure summary: MTT cytotoxicity assay
Format: cell-based
experimental setup: Homo sapiens; MTT assay, K562; read-out: IC50 K562
pIC50: −log10 of the molar value.
Item-by-item account of pIC50

# molecule, study system, qualifier, pIC50
measured = [
    ("O=C(NCC(=O)c1c[nH]c2ccccc12)NC(=O)c1c[nH]c2cc(O)ccc12 [Compound 5, spongocarbamide A]", "K562 cell line", "=", 4.03),
    ("O=C1NC(c2c[nH]c3cc(Br)ccc23)CN=C1c1c[nH]c2ccccc12 (stereo in doubt) [Compound 11, (R)-6′′-debromohamacanthin A]", "K562 cell line", "<", 4.00),
    ("COC(=O)c1c[nH]c2cc(O)ccc12 [Compound 14, 6-hydroxy-3-carbomethoxyindole]", "K562 cell line", "<", 4.00),
    ("CO[C@@]1(C(=O)c2c[nH]c3ccccc23)N=C(c2c[nH]c3ccccc23)C(=O)N1", "K562 cell line", "=", 4.55),
    ("CO[C@@]1(C(=O)c2c[nH]c3cc(O)ccc23)N=C(c2c[nH]c3ccccc23)C(=O)N1", "K562 cell line", "=", 4.62),
    ("O=C(NCC(=O)c1c[nH]c2cc(Br)ccc12)NC(=O)c1c[nH]c2cc(O)ccc12 [Compound 6, spongocarbamide B]", "K562 cell line", "<", 4.00),
    ("O=C(c1nc(-c2c[nH]c3ccccc23)c[nH]1)c1c[nH]c2cc(O)ccc12", "K562 cell line", "=", 4.82),
]
